inhibition at 1 µM values by entry
Target: CAMK2G (Homo sapiens, UniProt Q13555)
Sequence (Q13555 whole entry): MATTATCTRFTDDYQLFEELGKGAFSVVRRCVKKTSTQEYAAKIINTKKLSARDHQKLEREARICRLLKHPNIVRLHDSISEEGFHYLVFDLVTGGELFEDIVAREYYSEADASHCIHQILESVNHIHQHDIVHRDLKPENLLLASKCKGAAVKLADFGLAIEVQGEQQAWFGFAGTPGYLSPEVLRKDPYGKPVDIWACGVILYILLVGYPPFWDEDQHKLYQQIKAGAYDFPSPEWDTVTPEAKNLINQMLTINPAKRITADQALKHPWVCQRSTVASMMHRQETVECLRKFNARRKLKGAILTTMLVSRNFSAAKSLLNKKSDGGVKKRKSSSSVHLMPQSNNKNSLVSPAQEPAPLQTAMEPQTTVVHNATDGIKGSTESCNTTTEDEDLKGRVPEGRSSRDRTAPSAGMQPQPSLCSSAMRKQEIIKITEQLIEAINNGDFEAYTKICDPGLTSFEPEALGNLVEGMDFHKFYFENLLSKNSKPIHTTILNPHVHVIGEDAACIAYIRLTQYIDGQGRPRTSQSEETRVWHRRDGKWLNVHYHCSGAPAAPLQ
Assay: KINOMEscan competition binding
Conditions: read-out: %Inh CAMK2G

Here are 3 molecules together with their reported answers.
>  <molecule>
COc1cccc(OC)c1C(=O)Nc1cccc(-c2nn3ccccc3c2-c2ccnc(Nc3cccc(F)c3)n2)c1 [UNC10225310A]

>  <reported measurement>
0%

$$$$
>  <molecule>
Cn1cc(-c2cnc(N)c3c(-c4ccc5c(c4)CCN5C(=O)Cc4ccccc4)csc23)cn1 [UNC10225012A]

>  <reported measurement>
13%

$$$$
>  <molecule>
Cc1ccc(NC(=O)Nc2cccc(C(F)(F)F)c2)cc1 [UNC10225187A]

>  <reported measurement>
4%

$$$$

inhibition at 1 µM for O=c1cc(N2CCOCC2)nc2n(Cc3cccc(Cl)c3Cl)c(C3CC3)nn12 [UNC10225469A] ? 0%

Consider the molecule CS(=O)(=O)Cc1ccc(Nc2nccc(-c3c(-c4cccc(NC(=O)C5CCCCC5)c4)nn4ncccc34)n2)cc1 [UNC10225159A] and give its measured inhibition at 1 µM. 0%
